Data origin, for the record: ChEMBL document CHEMBL4706535

assay: Inhibition of His-tagged SARS-CoV 3c-like protease using Abz-SVTLQSG-Tyr(NO2)R as substrate by fluorometric assay; parameters: species or system Severe acute respiratory syndrome-related coronavirus
endpoint_label: pIC50
Here pIC50 is given on a logarithmic scale as minus log10 of the concentration in mol/L.

cpd_smiles	value_measured
CC(=O)N[C@H](C(=O)N[C@H](C(=O)N[C@@H](CC(C)C)C(=O)N[C@@H](C[C@@H]1CCNC1=O)C(=O)Cn1[nH]c(=O)c2ccccc2c1=O)[C@@H](C)OCc1ccccc1)C(C)C	5.57

Next item in the queue.
IN: Which pIC50 is listed for `CC(=O)N[C@H](C(=O)N[C@H](C(=O)N[C@@H](CC(C)C)C(=O)N[C@@H](C[C@@H]1CCNC1=O)C(=O)Cn1[nH]c(=O)c2c([N+](=O)[O-])cccc2c1=O)[C@@H](C)OCc1ccccc1)C(C)C` ?
OUT: 6.22

----------
pIC50: recorded values
experiment: Inhibition of SARS-CoV-2 3c-like protease; parameters: species or system Severe acute respiratory syndrome coronavirus 2
Here pIC50 is given on a logarithmic scale as minus log10 of the concentration in mol/L.

compound	pIC50
Oc1cc(O)c(Oc2cc(O)cc(O)c2Oc2cc(-c3c(O)cc(O)cc3O)c(O)cc2O)c(O)c1	4.65
Oc1cc(O)cc(Oc2c(Oc3c(O)cc(O)cc3O)cc(O)c3c2Oc2c(O)cc(O)cc2O3)c1 [2-PHLOROECKOL]	4.88
Oc1cc(O)cc(Oc2c(O)cc(O)c3c2Oc2c(O)cc(O)cc2O3)c1 [ECKOL]	5.06
Oc1cc(O)cc(Oc2c(O)cc(O)c3c2Oc2c(O)cc(Oc4c(O)cc(O)cc4O)cc2O3)c1	4.38
Oc1cc(O)cc(Oc2c(O)cc(O)c3c2Oc2c(O)cc4oc5c(Oc6cc(O)cc(O)c6)c(O)cc(O)c5c4c2O3)c1 [PHLOROFUCOFUROECKOL A]	4.78

Next item in the queue.
IN: Which pIC50 is listed for Oc1cc(O)cc(Oc2c(O)cc(O)c3c2Oc2c(O)cc(Oc4c(O)cc(Oc5c(O)cc(O)c6c5Oc5c(O)cc(O)cc5O6)cc4O)cc2O3)c1 [DIECKOL] ?
OUT: 5.57
